This collection of values is drawn from PubChem BioAssay AID1946.

# test target: Potassium voltage-gated channel subfamily KQT member 2 (Rattus norvegicus) (UniProt O88943)
# Sequence (O88943 whole entry, looked up): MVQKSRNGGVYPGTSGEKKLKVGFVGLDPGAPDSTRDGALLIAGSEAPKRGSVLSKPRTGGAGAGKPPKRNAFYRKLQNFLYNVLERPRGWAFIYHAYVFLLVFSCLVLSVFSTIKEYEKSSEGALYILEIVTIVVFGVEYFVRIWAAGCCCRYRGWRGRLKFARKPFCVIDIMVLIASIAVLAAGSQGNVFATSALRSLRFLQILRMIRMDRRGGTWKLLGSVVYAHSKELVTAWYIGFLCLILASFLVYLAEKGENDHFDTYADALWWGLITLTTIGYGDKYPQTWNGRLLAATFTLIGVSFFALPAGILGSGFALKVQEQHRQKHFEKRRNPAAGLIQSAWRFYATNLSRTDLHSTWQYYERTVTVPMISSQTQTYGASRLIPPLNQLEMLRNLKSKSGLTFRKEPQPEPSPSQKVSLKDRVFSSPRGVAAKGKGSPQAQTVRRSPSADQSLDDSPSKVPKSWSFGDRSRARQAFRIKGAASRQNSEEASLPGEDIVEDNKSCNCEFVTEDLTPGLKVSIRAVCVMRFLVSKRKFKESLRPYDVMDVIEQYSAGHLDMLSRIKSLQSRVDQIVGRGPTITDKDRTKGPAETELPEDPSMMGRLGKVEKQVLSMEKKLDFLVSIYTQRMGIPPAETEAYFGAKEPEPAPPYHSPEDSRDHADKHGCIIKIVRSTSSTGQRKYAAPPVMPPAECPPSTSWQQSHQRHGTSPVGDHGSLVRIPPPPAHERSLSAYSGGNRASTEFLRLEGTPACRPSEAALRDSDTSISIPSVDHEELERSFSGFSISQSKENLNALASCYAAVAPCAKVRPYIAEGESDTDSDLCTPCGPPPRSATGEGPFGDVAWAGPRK
# measurement notes: KCNQ2 blockade in CHO cells – cell-based, FluxOR thallium flux, counter-screen for hERG block protector project, confirmation (AID 1946)
# assay conditions: FluxOR thallium flux fluorescence, at 10 µM, active compounds read low, zero marks the 3-SD hit cutoff
About 180 (7.5%) of roughly 2,400 compounds were called active. The entries come from a sample that favours actives as a whole.
value type: activity change vs negative control (%)

- compound: "COc1cccc(C=NCCCN=Cc2cccc(OC)c2O)c1O"
  assay value: 37.4
- compound: "Cc1ccc(C(=C2C3C=CC2C2C(=O)NC(=O)C32)c2ccc(C)cc2)cc1 (stereo not given)"
  assay value: -2.6
- compound: "CCCOc1ccc(OC(=O)c2ccc(Br)o2)cc1"
  assay value: 20.9
- compound: "O=C(NC(=S)Nc1cccc(C(F)(F)F)c1)c1csnn1"
  assay value: 138
- compound: "COc1cc(/C=C2/OC(=O)c3cc([N+](=O)[O-])ccc32)cc(OC)c1OC"
  assay value: -0.9
- compound: "CCOC(=O)C1=NN(C(=O)c2cccc(Br)c2)C(O)(C(C)(C)C)C1 (stereo not given)"
  assay value: 111
- compound: "CC1c2nc3ccccc3n2C(CC(=O)NCCCN2CCOCC2)C(=O)N1Cc1ccccc1 (stereo not given)"
  assay value: 12
- compound: "CCOc1ccc(C(=O)N(CN2CCCC2=O)c2ccc(C)cc2)cc1"
  assay value: 44.8
- compound: "O=C(Nc1ccc(-c2csc(Nc3cccc(C(F)(F)F)c3)n2)cc1)c1ccccc1"
  assay value: -0.8
- compound: "Cc1ccc(CN2CCN(CC(=O)NC(C)c3ccc4c(c3)OCCO4)C2=O)cc1 (stereo not given)"
  assay value: 38.3
- compound: "CCSc1nnc(NC(=O)CC(C)C)s1"
  assay value: 10.8
- compound: "O=C(COc1ccccc1)Nc1ccc(S(=O)(=O)Nc2ccccn2)cc1"
  assay value: 0.2
- compound: "O=c1cc(-c2ccccc2)nc2c(-c3ccccc3)c(C(F)(F)F)[nH]n12"
  assay value: 81.1
- compound: "CCOC(=O)c1c(NS(=O)(=O)Cc2ccccc2)sc2c1CCCC2"
  assay value: 62
- compound: "O=C(Nc1cccnc1)c1ccc(COc2cc(Cl)ccc2Cl)o1"
  assay value: -5.5
- compound: "Cc1ccc2cc(CCNC(=O)C(=O)c3c(C)[nH]c4ccccc34)c(=O)[nH]c2c1"
  assay value: 0.8
- compound: "Cc1cc(C)n(-c2nc3sc4c(c3c(=O)[nH]2)CCCC4)n1"
  assay value: 28
- compound: "O=C(Nc1cccnc1)c1ccc(COc2ccccc2Br)o1"
  assay value: 7.9
- compound: "CCOc1ccc(S(=O)(=O)N2CCN(Cc3ccc4c(c3)OCO4)CC2)cc1C"
  assay value: -5.7
- compound: "Cc1sc2nc(CN3CCOCC3)[nH]c(=S)c2c1C"
  assay value: 108
- compound: "CN1N=C(C(=O)N2CCc3c([nH]c4ccccc34)C2c2c(F)cccc2Cl)CCC1=O (stereo not given)"
  assay value: 0.6
- compound: "Cn1c(=S)[nH]c2scc(-c3cccs3)c2c1=O"
  assay value: 93.4
- compound: "O=C(CN1C(=O)COc2ccccc21)NCCCN1CCOCC1"
  assay value: 6.2
- compound: "CC1CN(C(=S)NC(=O)c2ccc(Cl)cc2)CC(C)O1 (stereo not given)"
  assay value: 28.2
- compound: "C=CCN(CC=C)C(=S)NC(=O)c1ccc([N+](=O)[O-])cc1"
  assay value: 72.2
- compound: "COC(=O)c1ccc(/C=C/c2ccc3cccc(OC)c3n2)cc1"
  assay value: -0.2
- compound: "Cc1ccc2cc(CN(CCCN(C)C)C(=S)NCc3ccccc3)c(=O)[nH]c2c1C"
  assay value: -0.3
- compound: "c1ccc(-c2csc(Nc3ccc4c(c3)OCCO4)n2)cc1"
  assay value: 1.2
- compound: "Cc1cc(C)n(-c2nc(NCCCN(C)C)c3c4c(sc3n2)CCCC4)n1"
  assay value: -1.4
- compound: "Cc1nc(NCc2cccnc2)c2c3c(sc2n1)CC(C)CC3 (stereo not given)"
  assay value: 49.7
- compound: "Cc1ccc2nsnc2c1S(=O)(=O)Nc1cccc2nsnc12"
  assay value: 27.1
- compound: "CCC(=O)N(CC)c1nc(-c2ccc(OC)cc2)cs1"
  assay value: 60.4
- compound: "S=c1[nH]cnc2scc(-c3ccc(Cl)cc3)c12"
  assay value: 49.5
- compound: "O=C(Nn1c(O)c(C=C2N=c3ccccc3=N2)sc1=S)c1cccc(Cl)c1"
  assay value: 6.4
- compound: "O=C(NC(=S)NCCC1=CCCCC1)c1ccco1"
  assay value: 66.4
- compound: "C=CCn1c(SCc2ccc(C(=O)O)cc2)nc2sc(C)c(C)c2c1=O"
  assay value: 68
- compound: "CCCCCC(=O)NNC(=S)NC(=O)c1ccc([N+](=O)[O-])cc1"
  assay value: -10.1
- compound: "Cc1ccc(-n2nc3ccc(N)cc3n2)c(C)c1"
  assay value: -14.5
- compound: "S=c1nc[nH]c2c1sc1nc(N3CCOCC3)c3c(c12)CCCC3"
  assay value: 74.9
- compound: "COc1ccc(-c2nc(=S)c3ccc4ccccc4c3[nH]2)cc1"
  assay value: 74.5
- compound: "Cc1ccc(NC(=O)C(=O)NNC(=O)c2cccs2)cc1"
  assay value: 83.8
- compound: "C/C(=C/CCC(C)C1CCC2(C)C3CCC4C(C)(C)C(=O)CCC4(C)C3=CCC12C)C(=O)O (stereo not given)"
  assay value: 4.1
- compound: "Cc1ccc(NC(=O)CSc2nnc(C3CC3)n2CC2CCCO2)c(C)c1 (stereo not given)"
  assay value: -4.1
- compound: "Oc1c(Br)cc(Br)cc1CNc1cccc2cccnc12"
  assay value: -1.8
- compound: "COc1cc(/C=C2/C(=O)NN(c3ccc(Cl)c(Cl)c3)C2=O)cc([N+](=O)[O-])c1O"
  assay value: 10.8
